- Tested on: biotinyl-Phe-oxazolone
- ASSAY PROCEDURE: self-aminoacylation, catalytic enhancement (BFO) (fold over background); higher = more active; k-Seq, kA / k0A0; sequences stand for … in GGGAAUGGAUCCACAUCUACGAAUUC…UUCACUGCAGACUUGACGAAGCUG
This sample holds only a part of the variants without activity.
MEASURED ATTRIBUTE: self-aminoacylation

Request body: readout self-aminoacylation, system biotinyl-Phe-oxazolone, query CUACUUCUAACCAUCGGUCUG [Fam1A.1 aminoacylation ribozyme variant] . Return the value.
0.859

Would you kindly repeat that for CUUACCCUGGUCGUCGAGUGA [Fam2.1 aminoacylation ribozyme variant] ?
5.47

Would you kindly repeat that for AAGUUUGCUAAUAGUCGCUAU [Fam3.1 aminoacylation ribozyme variant] ?
1.39

Values compiled from the supplement of paper PMC9233669.
